- Tested on: Pseudomonas aeruginosa
- ASSAY NAME: Antimicrobial activity against Pseudomonas aeruginosa MTCC 1688 at 1000 ug/ml after 24 hrs by cup plate method
- Assay type: functional
- TEST PARAMETERS: MTCC 1688, 24 h, read-out: IZ

# COMPOUND, TARGET OR SYSTEM, zone of inhibition at 1000 µg/mL, mm
rows = [
    ("O=c1[nH]cnc2c1C(c1c(-c3ccccc3)[nH]c3ccc(Cl)cc13)C=C(c1ccccc1)O2 (stereo not drawn)", "Pseudomonas aeruginosa", 3),
    ("Cc1ccc2[nH]c(-c3ccccc3)c(C3C=C(c4ccc(Cl)cc4)OC(N)=C3C#N)c2c1 (stereo not drawn)", "Pseudomonas aeruginosa", 2),
    ("O=c1[nH]cnc2c1C(c1c(-c3ccccc3)[nH]c3ccccc13)C=C(c1ccc(Cl)cc1)O2 (stereo not drawn)", "Pseudomonas aeruginosa", 10),
    ("Cc1ccc2[nH]c(-c3ccccc3)c(C3C=C(c4ccc(Cl)cc4)Oc4nc5oc(=O)c(C#N)c(N)c5c(N)c43)c2c1 (stereo not drawn)", "Pseudomonas aeruginosa", 10),
    ("Cc1ccc2[nH]c(-c3ccccc3)c(C3C=C(c4ccccc4)Oc4nc5oc(=O)c(C#N)c(N)c5c(N)c43)c2c1 (stereo not drawn)", "Pseudomonas aeruginosa", 0),
    ("Nc1nc(=S)[nH]c2c1C(c1c(-c3ccccc3)[nH]c3ccccc13)C=C(c1ccccc1)O2 (stereo not drawn)", "Pseudomonas aeruginosa", 2),
    ("N#Cc1c(N)c2c(N)c3c(nc2oc1=O)OC(c1ccccc1)=CC3c1c(-c2ccccc2)[nH]c2ccc(Cl)cc12 (stereo not drawn)", "Pseudomonas aeruginosa", 5),
    ("Cc1ccc(C2=CC(c3c(-c4ccccc4)[nH]c4ccccc34)c3c(N)nc(=O)[nH]c3O2)cc1 (stereo not drawn)", "Pseudomonas aeruginosa", 3),
    ("O=c1[nH]cnc2c1C(c1c(-c3ccccc3)[nH]c3ccccc13)C=C(c1ccccc1)O2 (stereo not drawn)", "Pseudomonas aeruginosa", 4),
    ("Cc1ccc2[nH]c(-c3ccccc3)c(C3C=C(c4ccccc4)OC(N)=C3C#N)c2c1 (stereo not drawn)", "Pseudomonas aeruginosa", 5),
    ("Cc1ccc(C2=CC(c3c(-c4ccccc4)[nH]c4ccc(C)cc34)c3c(N)n[nH]c3O2)cc1 (stereo not drawn)", "Pseudomonas aeruginosa", 4),
    ("Cc1ccc2[nH]c(-c3ccccc3)c(C3C=C(c4ccc(Cl)cc4)Oc4[nH]nc(N)c43)c2c1 (stereo not drawn)", "Pseudomonas aeruginosa", 5),
    ("Nc1n[nH]c2c1C(c1c(-c3ccccc3)[nH]c3ccc(Cl)cc13)C=C(c1ccccc1)O2 (stereo not drawn)", "Pseudomonas aeruginosa", 13),
    ("N#CC1=C(N)OC(c2ccc(Cl)cc2)=CC1c1c(-c2ccccc2)[nH]c2ccc(Cl)cc12 (stereo not drawn)", "Pseudomonas aeruginosa", 10),
    ("Nc1nc(=O)[nH]c2c1C(c1c(-c3ccccc3)[nH]c3ccc(Cl)cc13)C=C(c1ccc(Cl)cc1)O2 (stereo not drawn)", "Pseudomonas aeruginosa", 9),
    ("Cc1ccc(C2=CC(c3c(-c4ccccc4)[nH]c4ccc(Cl)cc34)c3c(N)nc(=S)[nH]c3O2)cc1 (stereo not drawn)", "Pseudomonas aeruginosa", 10),
    ("Cc1ccc(C2=CC(c3c(-c4ccccc4)[nH]c4ccc(C)cc34)c3c(nc[nH]c3=O)O2)cc1 (stereo not drawn)", "Pseudomonas aeruginosa", 8),
    ("Nc1n[nH]c2c1C(c1c(-c3ccccc3)[nH]c3ccccc13)C=C(c1ccc(Cl)cc1)O2 (stereo not drawn)", "Pseudomonas aeruginosa", 10),
    ("Nc1nc(=O)[nH]c2c1C(c1c(-c3ccccc3)[nH]c3ccccc13)C=C(c1ccccc1)O2 (stereo not drawn)", "Pseudomonas aeruginosa", 13),
    ("Cc1ccc2[nH]c(-c3ccccc3)c(C3C=C(c4ccc(Cl)cc4)Oc4nc[nH]c(=O)c43)c2c1 (stereo not drawn)", "Pseudomonas aeruginosa", 4),
    ("Cc1ccc2[nH]c(-c3ccccc3)c(C3C=C(c4ccccc4)Oc4[nH]c(=O)nc(N)c43)c2c1 (stereo not drawn)", "Pseudomonas aeruginosa", 10),
    ("Cc1ccc(C2=CC(c3c(-c4ccccc4)[nH]c4ccc(C)cc34)c3c(nc4oc(=O)c(C#N)c(N)c4c3N)O2)cc1 (stereo not drawn)", "Pseudomonas aeruginosa", 4),
    ("Nc1nc(=O)[nH]c2c1C(c1c(-c3ccccc3)[nH]c3ccc(Cl)cc13)C=C(c1ccccc1)O2 (stereo not drawn)", "Pseudomonas aeruginosa", 5),
    ("Cc1ccc(C2=CC(c3c(-c4ccccc4)[nH]c4ccccc34)c3c(nc[nH]c3=O)O2)cc1 (stereo not drawn)", "Pseudomonas aeruginosa", 3),
    ("Cc1ccc(C2=CC(c3c(-c4ccccc4)[nH]c4ccc(C)cc34)c3c(N)nc(=S)[nH]c3O2)cc1 (stereo not drawn)", "Pseudomonas aeruginosa", 5),
    ("N#CC1=C(N)OC(c2ccccc2)=CC1c1c(-c2ccccc2)[nH]c2ccccc12 (stereo not drawn)", "Pseudomonas aeruginosa", 9),
    ("Cc1ccc(C2=CC(c3c(-c4ccccc4)[nH]c4ccccc34)c3c(nc4oc(=O)c(C#N)c(N)c4c3N)O2)cc1 (stereo not drawn)", "Pseudomonas aeruginosa", 9),
    ("Cc1ccc(C2=CC(c3c(-c4ccccc4)[nH]c4ccccc34)c3c(N)n[nH]c3O2)cc1 (stereo not drawn)", "Pseudomonas aeruginosa", 6),
    ("Cc1ccc(C2=CC(c3c(-c4ccccc4)[nH]c4ccc(Cl)cc34)c3c(nc4oc(=O)c(C#N)c(N)c4c3N)O2)cc1 (stereo not drawn)", "Pseudomonas aeruginosa", 2),
    ("Cc1ccc(C2=CC(c3c(-c4ccccc4)[nH]c4ccc(C)cc34)c3c(N)nc(=O)[nH]c3O2)cc1 (stereo not drawn)", "Pseudomonas aeruginosa", 10),
    ("Cc1ccc2[nH]c(-c3ccccc3)c(C3C=C(c4ccccc4)Oc4[nH]c(=S)nc(N)c43)c2c1 (stereo not drawn)", "Pseudomonas aeruginosa", 8),
    ("N#Cc1c(N)c2c(N)c3c(nc2oc1=O)OC(c1ccc(Cl)cc1)=CC3c1c(-c2ccccc2)[nH]c2ccccc12 (stereo not drawn)", "Pseudomonas aeruginosa", 9),
    ("Nc1nc(=S)[nH]c2c1C(c1c(-c3ccccc3)[nH]c3ccc(Cl)cc13)C=C(c1ccc(Cl)cc1)O2 (stereo not drawn)", "Pseudomonas aeruginosa", 11),
]

----------
- System: Aspergillus flavus
- ASSAY NAME: Antimicrobial activity against Aspergillus flavus MTCC 1973 at 750 ug/ml after 72 hrs by cup plate method
- Type: functional
- TEST PARAMETERS: MTCC 1973, 72 h, read-out: IZ
Each entry below carries its recorded zone of inhibition at 750 µg/mL.

# MOLECULE, UNIT TEXT, zone of inhibition at 750 µg/mL
records = [
    ("Nc1nc(=O)[nH]c2c1C(c1c(-c3ccccc3)[nH]c3ccc(Cl)cc13)C=C(c1ccc(Cl)cc1)O2 (centres undefined)", "mm", 6),
    ("Cc1ccc(C2=CC(c3c(-c4ccccc4)[nH]c4ccccc34)c3c(N)n[nH]c3O2)cc1 (centres undefined)", "mm", 2),
    ("Nc1n[nH]c2c1C(c1c(-c3ccccc3)[nH]c3ccc(Cl)cc13)C=C(c1ccccc1)O2 (centres undefined)", "mm", 12),
    ("Nc1nc(=S)[nH]c2c1C(c1c(-c3ccccc3)[nH]c3ccccc13)C=C(c1ccc(Cl)cc1)O2 (centres undefined)", "mm", 12),
    ("Cc1ccc2[nH]c(-c3ccccc3)c(C3C=C(c4ccccc4)Oc4nc[nH]c(=O)c43)c2c1 (centres undefined)", "mm", 8),
    ("O=c1[nH]cnc2c1C(c1c(-c3ccccc3)[nH]c3ccccc13)C=C(c1ccccc1)O2 (centres undefined)", "mm", 9),
    ("Nc1n[nH]c2c1C(c1c(-c3ccccc3)[nH]c3ccccc13)C=C(c1ccccc1)O2 (centres undefined)", "mm", 10),
    ("Cc1ccc(C2=CC(c3c(-c4ccccc4)[nH]c4ccc(Cl)cc34)c3c(N)n[nH]c3O2)cc1 (centres undefined)", "mm", 3),
    ("Cc1ccc(C2=CC(c3c(-c4ccccc4)[nH]c4ccccc34)C(C#N)=C(N)O2)cc1 (centres undefined)", "mm", 9),
    ("Nc1nc(=O)[nH]c2c1C(c1c(-c3ccccc3)[nH]c3ccc(Cl)cc13)C=C(c1ccccc1)O2 (centres undefined)", "mm", 10),
    ("Cc1ccc(C2=CC(c3c(-c4ccccc4)[nH]c4ccc(C)cc34)c3c(nc[nH]c3=O)O2)cc1 (centres undefined)", "mm", 9),
    ("Nc1nc(=S)[nH]c2c1C(c1c(-c3ccccc3)[nH]c3ccccc13)C=C(c1ccccc1)O2 (centres undefined)", "mm", 9),
    ("Cc1ccc2[nH]c(-c3ccccc3)c(C3C=C(c4ccc(Cl)cc4)Oc4nc5oc(=O)c(C#N)c(N)c5c(N)c43)c2c1 (centres undefined)", "mm", 5),
    ("N#CC1=C(N)OC(c2ccccc2)=CC1c1c(-c2ccccc2)[nH]c2ccccc12 (centres undefined)", "mm", 10),
    ("Cc1ccc2[nH]c(-c3ccccc3)c(C3C=C(c4ccc(Cl)cc4)Oc4nc[nH]c(=O)c43)c2c1 (centres undefined)", "mm", 5),
    ("Nc1nc(=O)[nH]c2c1C(c1c(-c3ccccc3)[nH]c3ccccc13)C=C(c1ccccc1)O2 (centres undefined)", "mm", 9),
    ("Cc1ccc(C2=CC(c3c(-c4ccccc4)[nH]c4ccc(C)cc34)c3c(N)nc(=S)[nH]c3O2)cc1 (centres undefined)", "mm", 8),
    ("Cc1ccc(C2=CC(c3c(-c4ccccc4)[nH]c4ccccc34)c3c(nc4oc(=O)c(C#N)c(N)c4c3N)O2)cc1 (centres undefined)", "mm", 0),
    ("Cc1ccc(C2=CC(c3c(-c4ccccc4)[nH]c4ccc(Cl)cc34)C(C#N)=C(N)O2)cc1 (centres undefined)", "mm", 5),
    ("Cc1ccc(C2=CC(c3c(-c4ccccc4)[nH]c4ccc(C)cc34)c3c(nc4oc(=O)c(C#N)c(N)c4c3N)O2)cc1 (centres undefined)", "mm", 12),
    ("Cc1ccc2[nH]c(-c3ccccc3)c(C3C=C(c4ccccc4)Oc4[nH]nc(N)c43)c2c1 (centres undefined)", "mm", 2),
    ("O=c1[nH]cnc2c1C(c1c(-c3ccccc3)[nH]c3ccccc13)C=C(c1ccc(Cl)cc1)O2 (centres undefined)", "mm", 9),
    ("Cc1ccc(C2=CC(c3c(-c4ccccc4)[nH]c4ccc(Cl)cc34)c3c(N)nc(=S)[nH]c3O2)cc1 (centres undefined)", "mm", 3),
    ("O=c1[nH]cnc2c1C(c1c(-c3ccccc3)[nH]c3ccc(Cl)cc13)C=C(c1ccc(Cl)cc1)O2 (centres undefined)", "mm", 4),
    ("Cc1ccc2[nH]c(-c3ccccc3)c(C3C=C(c4ccccc4)Oc4[nH]c(=S)nc(N)c43)c2c1 (centres undefined)", "mm", 6),
    ("Cc1ccc2[nH]c(-c3ccccc3)c(C3C=C(c4ccc(Cl)cc4)Oc4[nH]c(=S)nc(N)c43)c2c1 (centres undefined)", "mm", 3),
    ("Cc1ccc(C2=CC(c3c(-c4ccccc4)[nH]c4ccccc34)c3c(N)nc(=O)[nH]c3O2)cc1 (centres undefined)", "mm", 3),
    ("Cc1ccc(C2=CC(c3c(-c4ccccc4)[nH]c4ccc(C)cc34)c3c(N)nc(=O)[nH]c3O2)cc1 (centres undefined)", "mm", 2),
    ("N#CC1=C(N)OC(c2ccccc2)=CC1c1c(-c2ccccc2)[nH]c2ccc(Cl)cc12 (centres undefined)", "mm", 3),
    ("N#Cc1c(N)c2c(N)c3c(nc2oc1=O)OC(c1ccc(Cl)cc1)=CC3c1c(-c2ccccc2)[nH]c2ccc(Cl)cc12 (centres undefined)", "mm", 9),
    ("Nc1nc(=O)[nH]c2c1C(c1c(-c3ccccc3)[nH]c3ccccc13)C=C(c1ccc(Cl)cc1)O2 (centres undefined)", "mm", 12),
    ("Cc1ccc(C2=CC(c3c(-c4ccccc4)[nH]c4ccc(Cl)cc34)c3c(N)nc(=O)[nH]c3O2)cc1 (centres undefined)", "mm", 12),
    ("Cc1ccc(C2=CC(c3c(-c4ccccc4)[nH]c4ccccc34)c3c(N)nc(=S)[nH]c3O2)cc1 (centres undefined)", "mm", 3),
    ("N#Cc1c(N)c2c(N)c3c(nc2oc1=O)OC(c1ccc(Cl)cc1)=CC3c1c(-c2ccccc2)[nH]c2ccccc12 (centres undefined)", "mm", 0),
]
